Measured Target: T1, TNFR1 (Homo sapiens, UniProt P19438)
T1 chain: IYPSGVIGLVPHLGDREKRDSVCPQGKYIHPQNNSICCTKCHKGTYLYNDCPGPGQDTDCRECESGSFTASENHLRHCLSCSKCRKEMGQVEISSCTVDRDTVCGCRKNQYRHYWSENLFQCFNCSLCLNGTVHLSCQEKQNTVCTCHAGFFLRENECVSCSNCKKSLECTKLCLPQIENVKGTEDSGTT
Run Description: yeast display SC50

{"columns": ["Binder", "Unit String", "apparent Kd (screen)"],
 "data": [
  ["L26S (designed binder) MTLQELLREEALRRAEAEAFRYALESLAEKFPEQKEYLLDLAEEIESQIRSLSGVDVEDVRKFLDKEWAWVKELLAEHPAELAEVEAARAARLAELRAEVEAKVAA", "nM", 0.49],
  ["V100K (designed binder) MTLQELLREEALRRAEAEAFRYALELLAEKFPEQKEYLLDLAEEIESQIRSLSGVDVEDVRKFLDKEWAWVKELLAEHPAELAEVEAARAARLAELRAEKEAKVAA", "nM", 0.49],
  ["E77T (designed binder) MTLQELLREEALRRAEAEAFRYALELLAEKFPEQKEYLLDLAEEIESQIRSLSGVDVEDVRKFLDKEWAWVKELLATHPAELAEVEAARAARLAELRAEVEAKVAA", "nM", 0.49]
]}
